- System: clinical strains of Enterobacter cloacae
- test name: MIC, clinical strains of Enterobacter cloacae
- Format: cell-based
- Parameters: unit: μg/ml
- measurement setup: Enterobacter cloacae clinical strain 1; microdilution, Muller Hinton broth-cation adjusted, 0.02% BSA, 0.2% acetic acid
Where a SMILES comes first, the peptide text is derived from it. [ ]: non-standard residue; d: D form.
The following molecules are listed with their measured Minimum inhibitory concentration values.

Worked set:
CC(C)C[C@@H](NC(=O)[C@@H](Cc1c[nH]c2ccccc12)NC(=O)[C@@H](Cc1ccccc1)NC(=O)[C@@H](Cc1c[nH]c2ccccc12)NC(=O)[C@@H](CCCCN)NC(=O)[C@@H](CCCNC(=N)N)NC(=O)[C@H](N)Cc1c[nH]c2ccccc12)C(=O)N[C@H](Cc1ccccc1)C(=O)N[C@H](CCCCN)C(=O)N[C@H](CCCCN)C(=O)N[C@H](CCCNC(=N)N)C(=O)O [Chain309D] (H-[dW][dR][dK][dW][dF][dW][dL][dF][dK][dK][dR]-OH) | >128
CC(C)C[C@@H](NC(=O)[C@H](N)CCCNC(=N)N)C(=O)N[C@H](CCCCN)C(=O)N[C@H](CCCNC(=N)N)C(=O)N[C@H](Cc1c[nH]c2ccccc12)C(=O)N[C@H](CCCNC(=N)N)C(=O)N[C@H](CC(C)C)C(=O)N[C@H](Cc1ccccc1)C(=O)N[C@H](CCCNC(=N)N)C(=O)N[C@H](CCCCN)C(=O)N[C@H](CCCNC(=N)N)C(=O)O [Chain306D] (H-[dR][dL][dK][dR][dW][dR][dL][dF][dR][dK][dR]-OH) | 64

Name the recorded Minimum inhibitory concentration for CC(C)C[C@@H](NC(=O)[C@H](N)CCCNC(=N)N)C(=O)N[C@H](CCCCN)C(=O)N[C@H](Cc1c[nH]c2ccccc12)C(=O)N[C@H](Cc1ccccc1)C(=O)N[C@H](CC(C)C)C(=O)N[C@H](CC(C)C)C(=O)N[C@H](Cc1ccccc1)C(=O)N[C@H](CCCNC(=N)N)C(=O)N[C@H](CCCCN)C(=O)N[C@H](CCCNC(=N)N)C(=O)O [Chain308D] (H-[dR][dL][dK][dW][dF][dL][dL][dF][dR][dK][dR]-OH) .
2

====

- Test system: clinical strains of Candida albicans
- test name: MIC, clinical yeast strains, Candida albicans
- Assay type: cell-based
- Set-up: unit: μg/ml
- measurement setup: Candida albicans clinical yeast strain 1
Where a SMILES comes first, the peptide text is derived from it. [ ]: non-standard residue; d: D form.
The following compounds are listed with their measured Minimum inhibitory concentration values.
Form field (numeric): enter value without unit.

Worked set:
CC(C)C[C@@H](NC(=O)[C@H](N)CCCCN)C(=O)N[C@H](CCCCN)C(=O)N[C@H](Cc1c[nH]c2ccccc12)C(=O)N[C@H](Cc1ccccc1)C(=O)N[C@H](Cc1c[nH]c2ccccc12)C(=O)N[C@H](CC(C)C)C(=O)N[C@H](Cc1ccccc1)C(=O)N[C@H](CCCCN)C(=O)N[C@H](CCCCN)C(=O)N[C@H](CCCNC(=N)N)C(=O)O [Chain311D] (H-[dK][dL][dK][dW][dF][dW][dL][dF][dK][dK][dR]-OH) | 8
CC(C)C[C@@H](NC(=O)[C@H](N)CCCNC(=N)N)C(=O)N[C@H](CCCCN)C(=O)N[C@H](Cc1c[nH]c2ccccc12)C(=O)N[C@H](Cc1ccccc1)C(=O)N[C@H](Cc1c[nH]c2ccccc12)C(=O)N[C@H](CC(C)C)C(=O)N[C@H](Cc1ccccc1)C(=O)N[C@H](CCCNC(=N)N)C(=O)N[C@H](CCCCN)C(=O)N[C@H](CCCNC(=N)N)C(=O)O [Chain307D] (H-[dR][dL][dK][dW][dF][dW][dL][dF][dR][dK][dR]-OH) | 16
CC(C)C[C@@H](NC(=O)[C@@H](CCCCN)NC(=O)[C@@H](CCCCN)NC(=O)[C@@H](Cc1ccccc1)NC(=O)[C@@H](CC(C)C)NC(=O)[C@@H](Cc1c[nH]c2ccccc12)NC(=O)[C@@H](CCCNC(=N)N)NC(=O)[C@@H](Cc1c[nH]c2ccccc12)NC(=O)[C@@H](CCCCN)NC(=O)[C@@H](CCCNC(=N)N)NC(=O)[C@H](N)CCCCN)C(=O)O [Chain310D] (H-[dK][dR][dK][dW][dR][dW][dL][dF][dK][dK][dL]-OH) | 16
CC(C)C[C@@H](NC(=O)[C@H](N)CCCNC(=N)N)C(=O)N[C@H](CCCCN)C(=O)N[C@H](CCCNC(=N)N)C(=O)N[C@H](Cc1c[nH]c2ccccc12)C(=O)N[C@H](CCCNC(=N)N)C(=O)N[C@H](CC(C)C)C(=O)N[C@H](Cc1ccccc1)C(=O)N[C@H](CCCNC(=N)N)C(=O)N[C@H](CCCCN)C(=O)N[C@H](CCCNC(=N)N)C(=O)O [Chain306D] (H-[dR][dL][dK][dR][dW][dR][dL][dF][dR][dK][dR]-OH) | 16
CC[C@@H](C)[C@@H](N)C(=O)N[C@H](Cc1c[nH]c2ccccc12)C(=O)N[C@H](CCCCN)C(=O)N[C@H](CCCNC(=N)N)C(=O)N[C@H](Cc1ccccc1)C(=O)N[C@H](CCCNC(=N)N)C(=O)N[C@H](CC(C)C)C(=O)N[C@H](Cc1ccccc1)C(=O)N[C@H](CCCCN)C(=O)N[C@H](CCCCN)C(=O)N[C@H](Cc1c[nH]c2ccccc12)C(=O)O [Chain304D] (H-[dI][dW][dK][dR][dF][dR][dL][dF][dK][dK][dW]-OH) | 16

Continue with the compound presented below.
Name the recorded Minimum inhibitory concentration for CC[C@@H](C)[C@@H](NC(=O)[C@@H](CC(C)C)NC(=O)[C@@H](CCCNC(=N)N)NC(=O)[C@H](N)CCCNC(=N)N)C(=O)N[C@H](Cc1c[nH]c2ccccc12)C(=O)N[C@H](CCCNC(=N)N)C(=O)N[C@H](CCCNC(=N)N)C(=O)N[C@H](Cc1ccccc1)C(=O)N[C@H](CCCCN)C(=O)N[C@H](Cc1c[nH]c2ccccc12)C(=O)N[C@H](CC(C)C)C(=O)N[C@H](CCCNC(=N)N)C(=O)O [Chain204D] (H-[dR][dR][dL][dI][dW][dR][dR][dF][dK][dW][dL][dR]-OH) .
8
